Study system: T1, recombinant mUHRF1 V2 (mouse)
T1 chain: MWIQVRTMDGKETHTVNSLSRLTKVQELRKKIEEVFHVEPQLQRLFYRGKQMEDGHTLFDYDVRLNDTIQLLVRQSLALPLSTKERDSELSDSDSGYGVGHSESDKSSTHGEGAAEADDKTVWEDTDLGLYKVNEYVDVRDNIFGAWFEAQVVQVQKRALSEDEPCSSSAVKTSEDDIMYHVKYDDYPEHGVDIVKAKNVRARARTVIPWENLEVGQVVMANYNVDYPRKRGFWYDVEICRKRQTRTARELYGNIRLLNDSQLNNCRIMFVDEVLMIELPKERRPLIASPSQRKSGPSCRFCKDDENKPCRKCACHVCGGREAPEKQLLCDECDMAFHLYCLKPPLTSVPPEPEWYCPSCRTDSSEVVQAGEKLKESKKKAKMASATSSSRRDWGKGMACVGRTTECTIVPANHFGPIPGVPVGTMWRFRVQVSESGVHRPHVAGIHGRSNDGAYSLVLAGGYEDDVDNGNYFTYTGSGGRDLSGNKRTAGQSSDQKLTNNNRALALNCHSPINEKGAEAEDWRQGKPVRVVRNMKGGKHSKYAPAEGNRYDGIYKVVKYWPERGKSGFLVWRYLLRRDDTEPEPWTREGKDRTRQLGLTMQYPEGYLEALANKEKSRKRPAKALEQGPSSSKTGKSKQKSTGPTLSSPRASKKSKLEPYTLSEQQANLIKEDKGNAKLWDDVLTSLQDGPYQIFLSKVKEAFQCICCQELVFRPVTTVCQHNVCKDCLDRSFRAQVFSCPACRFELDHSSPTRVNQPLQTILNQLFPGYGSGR
Method description: MST; + 100-fold molar excess PI5P
Observable: pKd
Note: pKd values are expressed as the negative base-10 logarithm of concentration in M.

Look up pKd: ARTKQTARKSTGGKA (trimethyl-lysine at K9) [H3K9me3 peptide (titrated in MST)]
5.09
